- STUDY_SYSTEM: Carboxypeptidase A1 (Bos taurus)
MEASURED_PROPERTY: Ki (nM)

P. O=C(O)C[C@@H](Cc1ccccc1)C(=O)O [2-benzylbutanedioic acid]
Q. O=C(O)CCC(Cc1ccccc1)C(=O)O (configuration not stated) [2-Benzyl-pentanedioic acid]
Exam item: Between P and Q , whose recorded Ki is greater? // output: label of the selected item
Marked response: Q
